Tested on: PC-3 prostate
EXPERIMENT NOTES: NCI tumour cell line growth inhibition, 48 h
METRIC: GI50

Lab note: compound O=C1CN2CCC1C/C2=C\c1ccnc2c(Cl)cccc12 (stereo not given) tested on PC-3 prostate; recorded GI50 was 89 µM

###

System: A549 NSCLC
EXPERIMENT NOTES: NCI tumour cell line growth inhibition, 48 h
METRIC: TGI

The cases that follow already have their TGI on record.
COMPOUND: Cc1ccc(-c2nc3nc(-c4ccc(Cl)cc4)nc(N4CCCNCC4)c3o2)cc1
TARGET DESC: A549 NSCLC
ENDPOINT VALUE: 3.83 µM

COMPOUND: O=C1CC(n2cccc2)c2cc(Br)sc21 (stereo not drawn)
TARGET DESC: A549 NSCLC
ENDPOINT VALUE: > 100 µM

COMPOUND: O=C(Nc1nc(-c2ccc(Cl)cc2)cs1)c1ccc(O)c(O)c1
TARGET DESC: A549 NSCLC
ENDPOINT VALUE: 14.3 µM

TGI recorded for this compound, CO[C@H]1C[C@@H]2CC[C@@H](C)[C@@](O)(O2)C(=O)C(=O)N2CCCC[C@H]2C(=O)O[C@H]([C@H](C)C[C@@H]2CC[C@@H](OC(=O)C(C)(CO)CO)[C@H](OC)C2)CC(=O)[C@H](C)/C=C(\C)[C@@H](O)[C@@H](OC)C(=O)[C@H](C)C[C@H](C)/C=C/C=C/C=C/1C , is > 100 µM

response.value for CCOC(=O)C1=C(C)C2C3C(=O)NC(=O)C3C1(C)C1C(=O)NC(=O)C21 (stereo not drawn) (field: TGI) = > 100 µM

The value of TGI measured for the compound COc1ccc(C(=O)c2ccc(OC)cc2OC)cc1 turned out to be > 100 µM

The recorded TGI for CC(C)C1=CC(=O)C(C)(C2=NC(C)(C)CO2)c2ccccc21 (stereo not drawn) is > 100 µM

Lab book: TGI of Cc1c(C(=O)Nc2ccc(Cl)c(C(F)(F)F)c2)oc2cc(O)ccc2/c1=N\NC(N)=S noted as > 100 µM

###

Test system: HS 578T breast
EXPERIMENT NOTES: NCI tumour cell line growth inhibition, 48 h
Below: a set of entries, each annotated with reported TGI.
Value expressed in µM; do not type the unit.

MOLECULE: O=C(c1cccs1)c1c(C(F)(F)F)n([O-])c2cc(C(F)(F)F)ccc2[n+]1=O
ENDPOINT VALUE: 0.546

Just so you know, measured TGI for CCCCCCCCO/N=C\c1c2c(O)c3c(O)c(C)c4c(c3c1O)C(=O)C(C)(O/C=C\C(OC)C(C)C(OC(C)=O)C(C)C(O)C(C)C(O)C(C)/C=C\C=C(\C)C(=O)N2)O4 (stereo not given) came out at 3.1

###

System: NCI-H522 lung
EXPERIMENT NOTES: NCI tumour cell line growth inhibition, 48 h
Below is a list of entries, each paired with its recorded TGI value.
Response body: numeric value in µM, unit text excluded.

Some solved entries appear below for comparison.
MOLECULE: CC1=CC[C@@]2(C)[C@@H]([C@@H]1C)[C@H]1CC[C@@H]3[C@@]4(C)CC[C@H](O)C(C)(C)[C@@H]4CC[C@@]3(C)[C@]1(C)C[C@@H]2O
RESULT UNITS: µM
TGI: 8.15
--
MOLECULE: C/C=C/C/C=C/CCC(=O)C1OC1C(N)=O (centres undefined)
RESULT UNITS: µM
TGI: 25.8

Notebook: C=C1C(=O)O[C@H]2[C@H]1CC/C(Cn1cc(Cn3ccc4cc(Cl)ccc43)nn1)=C\CC[C@@]1(C)O[C@@H]21 , TGI read as 2.87

###

System: IGROV1 ovarian
EXPERIMENT NOTES: NCI tumour cell line growth inhibition, 48 h; in the data active = GI50 below about 0.43 µM; inactive = the rest
Give one outcome, nothing more. List: active, inactive

Here's what some known entries look like.
COMPOUND: Cn1c(Cc2ccccc2)nc2cc3ccccc3cc21
ANSWER LABEL: inactive
--
COMPOUND: CC(=O)O[C@H]1C(=O)[C@@]2(C)[C@H]([C@H](OC(=O)c3ccccc3)[C@]3(O)C[C@H](OC(=O)[C@H](OC(=O)CCC(=O)OC4CCC(S/N=C(N)/N=C(\N)N(C)C)CC4)[C@@H](NC(=O)c4ccccc4)c4ccccc4)C(C)=C1C3(C)C)[C@]1(OC(C)=O)CO[C@@H]1C[C@@H]2O (stereo partly specified)
ANSWER LABEL: active
--
COMPOUND: COc1cc(/C=C2\C[C@H]3[C@@H]4CC=C5C[C@@H](OC(C)=O)CC[C@]5(C)[C@H]4CC[C@]3(C)[C@H]2OC(C)=O)ccc1OCCCn1ccnc1
ANSWER LABEL: inactive
--
COMPOUND: COc1cc(/C=C/C(=O)CC(=O)/C=C/c2ccc(OC(=O)CCNC34CC5CC(CC(C5)C3)C4)c(OC)c2)ccc1OC(=O)CCNC12CC3CC(CC(C3)C1)C2
ANSWER LABEL: inactive
--
COMPOUND: COc1ccc2c(c1)C(=O)c1c-2c(N2CCN(C(=O)CN(C)C)CC2)nc2ccccc12
ANSWER LABEL: inactive

In the following, a different compound is considered.
Req: Write down the call the test reported for this compound. Item: Cc1ccc(-c2nc3nc(-c4ccc(Cl)cc4)nc(N4CCCNCC4)c3o2)cc1
Resp: inactive

###

Tested on: NCI-H23 lung
EXPERIMENT NOTES: NCI tumour cell line growth inhibition, 48 h
Reported log10 of TGI values for the following molecules.
Each number you see is log10 of TGI, and the unit inside the log is µM.

Below, 3 molecules whose answers are already recorded.
COMPOUND STRUCTURE STRING: O=c1[nH]c2nccn2c(Cl)c1Br
log10 of TGI: 1.56
//
COMPOUND STRUCTURE STRING: COc1ccc2c(c1)/C(=C/c1c(-c3ccc(C)cc3)nc3sc(C)cn13)C(=O)N2
log10 of TGI: 1.51
//
COMPOUND STRUCTURE STRING: C[C@@H](Oc1cc(-c2cnn(C3CC4(CCNCC4)C3)c2)cnc1N)c1c(F)ccc(Cl)c1Cl
log10 of TGI: 1.06

The reported log10 of TGI of the molecule Cc1ccc(-c2nc3nc(-c4ccc(Cl)cc4)nc(N4CCCNCC4)c3o2)cc1 was 0.53

log10 of TGI measured on CCC[CH2][Sn]([CH2]CCC)([O]C(=O)c1cccc(F)c1F)[O][Sn]([CH2]CCC)([CH2]CCC)[O]C(=O)c1cccc(F)c1F = -0.57

###

Listing of recorded TGI by entry.
Test system: TK-10 renal
EXPERIMENT NOTES: NCI tumour cell line growth inhibition, 48 h

// below: answered molecules
MOLECULE: Clc1cccc(Cl)c1C1SCc2nc3cc4ccccc4cc3n21 (stereo not given)
TGI: > 100 µM

MOLECULE: CC1=C([Se]CC(OC(=O)[C@@H](CSSC(C)(C)C)NC(=O)C(C)(C)C)C(=O)NCCCCCC(=O)OCc2ccccc2)C(=O)c2ccccc2C1=O (stereo not given in full)
TGI: 4.43 µM

MOLECULE: CCC[CH2][Sn]([CH2]CCC)([O]C(=O)c1cccc(F)c1F)[O][Sn]([CH2]CCC)([CH2]CCC)[O]C(=O)c1cccc(F)c1F
TGI: 0.562 µM

MOLECULE: O=C1NC(=O)[C@H]2C3C=CC([C@@H]12)[C@@H]1C(=O)NC(=O)[C@H]31
TGI: > 100 µM

Here's the next entry for you.
Kindly note the recorded TGI for COCC1OCCN1C (stereo not given) , which is > 100 µM

###

Entries annotated with measured TGI
System: A549 NSCLC
EXPERIMENT NOTES: NCI tumour cell line growth inhibition, 48 h
// note: answer is a bare numeric in µM

COMPOUND: COc1nc(C#CCCCC#N)nc(OC)n1
ENDPOINT VALUE: 31.9

Now look at this entry.
Short answer on A549 NSCLC for CCCCC1Cc2cc(OC)ccc2-c2nc3cc(OC)ccc3n21 (stereo not given) (tested in a mixture with another compound) , TGI: 27.9

###

Each entry below carries its recorded GI50.
System: TK-10 renal
EXPERIMENT NOTES: NCI tumour cell line growth inhibition, 48 h

COMPOUND: Cc1c(N(C(=O)c2cc(-c3cc(Cl)ccc3C(=O)N3Cc4ccccc4C[C@H]3CN3CCOCC3)n(C)c2C)c2ccc(O)cc2)cc(C#N)n1C
GI50: 12.8 µM
//
COMPOUND: O=C(Nc1cccc(-c2nc3ccccc3[nH]2)c1)c1cccc(NC(=O)c2ccco2)c1
GI50: 2.88 µM
//
COMPOUND: COc1cc(C(=O)O)ccc1NC(=O)[C@@H]1N[C@@H](CC(C)(C)C)[C@](C#N)(c2ccc(Cl)cc2F)[C@H]1c1cccc(Cl)c1F
GI50: 5.28 µM
//
COMPOUND: CCCN1C(=O)/C(=C/c2ccc(O)cc2)SC1=Nc1ccccc1
GI50: 18.6 µM
//
COMPOUND: CC(=O)[CH-]C(C)=O.CC(=O)[CH-]C(C)=O.CC(=O)[CH-]C(C)=O.[Cl-].[Hf+4]
GI50: > 100 µM
//
COMPOUND: COc1cc2c3c(n(CCCn4ccnc4)c(=O)c2cc1OC)-c1ccccc1C3=O
GI50: 0.923 µM
//
COMPOUND: COc1ccc(C(=O)c2ccc(OC)cc2OC)cc1
GI50: 5.01 µM
//
COMPOUND: CCN(CC)CCCC(C)N/C(c1cccc(OC)c1)=c1\c(=O)[nH]n(-c2c3ccccc3nc3ccccc23)c(=O)\c1=C(/NC(C)CCCN(CC)CC)c1cccc(OC)c1 (centres undefined)
GI50: 2.58 µM

In the following, a different compound is considered.
Form field, GI50 with TK-10 renal, item CN1CCN(CCCOc2ccc3ncnc(Nc4ccc(Oc5cccc(C(F)(F)F)c5)c(Cl)c4)c3c2)CC1 : 1.5 µM
